Target: T1, human LIV-1 (human, UniProt Q13433 29-755); further: test concentration or dose not given here
T1 sequence (looked up): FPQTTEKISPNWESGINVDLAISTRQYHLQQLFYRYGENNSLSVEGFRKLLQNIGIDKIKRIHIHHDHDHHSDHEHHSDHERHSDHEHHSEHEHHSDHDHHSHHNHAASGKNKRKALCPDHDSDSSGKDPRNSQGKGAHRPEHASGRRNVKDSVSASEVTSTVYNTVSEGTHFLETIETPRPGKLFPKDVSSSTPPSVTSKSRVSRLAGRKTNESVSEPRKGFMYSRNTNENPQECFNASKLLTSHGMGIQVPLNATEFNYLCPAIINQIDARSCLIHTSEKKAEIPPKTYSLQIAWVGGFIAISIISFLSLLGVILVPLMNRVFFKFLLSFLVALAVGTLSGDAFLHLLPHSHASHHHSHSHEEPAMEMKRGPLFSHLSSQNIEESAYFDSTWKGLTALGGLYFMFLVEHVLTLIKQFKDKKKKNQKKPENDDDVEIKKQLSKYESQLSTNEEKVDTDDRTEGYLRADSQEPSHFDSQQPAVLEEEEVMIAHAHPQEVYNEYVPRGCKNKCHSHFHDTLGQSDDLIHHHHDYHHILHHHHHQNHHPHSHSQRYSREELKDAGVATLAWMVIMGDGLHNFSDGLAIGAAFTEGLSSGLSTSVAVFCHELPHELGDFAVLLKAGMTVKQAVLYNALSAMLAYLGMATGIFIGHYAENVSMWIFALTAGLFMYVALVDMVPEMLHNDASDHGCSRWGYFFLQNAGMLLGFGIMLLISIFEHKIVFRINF
Assay: cell-based or functional assay
MEASUREMENT_TYPE: Cell viability(%)
# value in %; strip the unit string

Answered examples (3):
127A2B9 (antibody, V domains shown, Tested as chimeric antibody) VH: EVQLQESGPSLVKPSQTLSLTCSVTGDSITSGYWNWIRKLPGNKLEYMGYISYSGSTYYNPSLKSRISITRDTSKNQYYLQLNSVTTEDTATYYCARIYYDYDGYFDVWGAGTTVTVSS VL: DIVMTQAAPSVPVTPGESVSISCRSSKSLLHSNGNTFLYWFLQRPGQSPQLLIYRMSNLASGVPDRFSGSGSGTAFTLRISRVEAEDVGVYYCMQHLEYPYTFGGGTKLEIK | 17.8
109C9D4 (antibody, V domains shown, Tested as chimeric antibody) VH: EVKLVESGGGLVQPGGSRKLSCAASGFTFSDYGMAWVRQAPGKGPEWVTFISNLAYSIYYADTVTGRFTISRENAKNTLYLEMSSLRSEDTAMYYCARVEENGNYFDYWGQGTTLTVSS VL: DIQMTQTTSSLSASLGDRVTIRCRASQDIGIYLHWYQQKPDGTVKLLIYYTSRLHSGVPSRFSGSRSGTDYSLTIGNLEQEDIATYFCLQGNTIPPTFGGGTKLEIK | 18.5
124H4D11 (antibody, V domains shown, Tested as chimeric antibody) VH: EVPLQQSGAELVRSGASVKLSCTASGFNIKDYYMHWVKQRPEQGLEWIGWIDPENGDTEYDPKFQGKATMTADTSSNTADLQLSSLTSEDTAVYYCNARYYAFDYWGQGTTLTVSS VL: DVLMTQTPLSLPVSLGDQASISCRSSQSIVHSNGNTYLEWYLQKPGQSPKLLIYKVSNRFSGVPDRFSGSGSGTEFTLKISRVEAEDLGVYYCFQGSQVPPTFGGGTRLEIK | 15.4

Shift focus to the following entry.
input: Give me measured Cell viability(%), please, for this binder: 108H1D4 (antibody, V domains shown, Tested as chimeric antibody) VH: EVKLVESGGDLVQPGGSRKLSCAASGFTFSDYGMAWFRQAPGKGPEWVAFISNLAYNIYYADTVTGRFTISRENARNTLYLEMSSLRSEDTAMYYCAREGGITTVPATDYFDYWGQGTTLTVSS VL: DIQMTQTTSSLSASLGDRVTFSCRASQDIRNYLNWYQQKPDGTVKLLIYYTSRLHSGVPSRFSGSGSGTDYSLTINNLEQEDLATYFCQQVNALPLTFGAGTKLELK
output: 17.3

Reference source: patent US20240325555A1
